# Test system: NCI-H23 lung
# experiment: NCI-60 one-dose screen, 48 h (100 = growth as untreated, 0 = no growth, -100 = all killed)
# applied_conditions: 10 µM unless noted
Compounds without any hit were thinned out: in the full panel of roughly 83,000, 20% have a hit.
Response field label takes true (1) when growth is strictly below 70% and false (0) in all other cases.

[
  {
    "smiles_data": "NCCCNc1nc2ccccc2c2c(=O)c3cc(C(F)(F)F)ccc3sc12",
    "category": "true (1)"
  }
]

Next up:
Say whether its growth is strictly beneath 70%. Entry: CC[C@H](C)C(=O)O[C@H]1CCC=C2C=C[C@H](C)[C@H](CC[C@@H]3CC=CC(=O)O3)[C@H]21
false (0)
